# measuredTarget: HLA-B*2709 (Homo sapiens, UniProt P01889, D138H/D201E/E176V/E204Q/G107R/H137Y/K202T/N104T/N87E/Q56L/Q94K/R106L/R155S/R180L/S101D/S121N/S48T/Y140H/Y33H/Y91C)
# Construct: expressed in transfected cells; host or cells: RMA-S (TAP-deficient murine cell line)
# protocolText: HLA/peptide complex stability assay, RMA-S cells transfected with HLA-B*2709
# Assay type: cell-based
# conditionSummary: EC50, B*2709; SD
Ends that are not written are not given here.
outcomeMeasure: pEC50
The value called pEC50 is obtained by taking minus log10 of the concentration in mol/L.

Which pEC50 value belongs to RRAIATPGM [Flu PB1 238-246, reference compound] ?
5.70

---

# measuredTarget: HLA-B*2706 (Homo sapiens, UniProt P01889, A235G/D201E/E204Q/G107R/H137Y/K202T/N104T/N87E/Q56L/Q94K/R106L/R155S/R180L/S121N/S48T/Y33H/Y91C)
# Construct: expressed in transfected cells; host or cells: RMA-S (TAP-deficient murine cell line)
# protocolText: HLA/peptide complex stability assay, RMA-S cells transfected with HLA-B*2706
# Assay type: cell-based
# conditionSummary: SD
Ends that are not written are not given here.
outcomeMeasure: EC50
Answer format: value, then unit.

Which EC50 value belongs to RRAIATPGM [Flu PB1 238-246, reference compound] ?
2 µM

---

# measuredTarget: HLA-B*2705 (Homo sapiens, UniProt P01889, D138H/D201E/E176V/E204Q/G107R/H137Y/K202T/N104T/N87E/Q56L/Q94K/R106L/R155S/R180L/S101D/S121N/S48T/Y140D/Y33H/Y91C)
# Construct: expressed in transfected cells; host or cells: RMA-S (TAP-deficient murine cell line)
# protocolText: HLA/peptide complex stability assay, RMA-S cells transfected with HLA-B*2705
# Format: cell-based
# conditionSummary: SD
Ends that are not written are not given here.
outcomeMeasure: EC50

Which EC50 value belongs to RRAIATPGM [Flu PB1 238-246, reference compound] ?
3 µM

---

# measuredTarget: HLA-B*2702 (Homo sapiens, UniProt P01889, D138H/D201E/E176V/E204Q/G107R/H137Y/K202T/L105A/N104I/N87E/Q56L/Q94K/R106L/R155S/R180L/S101N/S121N/S48T/Y140D/Y33H/Y91C)
# protocolText: HLA/peptide complex stability assay, RMA-S cells transfected with HLA-B*2702
# Format: cell-based
# conditionSummary: EC50, B*2702; SD
Ends that are not written are not given here.
outcomeMeasure: EC50 (µM)
Numbers only here, please. The scale is µM.

Which EC50 value belongs to RRAIATPGM [Flu PB1 238-246, reference compound] ?
12

---

# measuredTarget: HLA-B*2704 (Homo sapiens, UniProt P01889, A235G/D138H/D201E/E204Q/G107R/H137Y/K202T/N104T/N87E/Q56L/Q94K/R106L/R155S/R180L/S121N/S48T/Y140D/Y33H/Y91C)
# protocolText: HLA/peptide complex stability assay, RMA-S cells transfected with HLA-B*2704
# Assay type: cell-based
# conditionSummary: SD
Ends that are not written are not given here.
outcomeMeasure: EC50 (µM)
Numbers only here, please. The scale is µM.

Which EC50 value belongs to RRAIATPGM [Flu PB1 238-246, reference compound] ?
9
